Quick reference: melting point of the listed items.
Answer in °C, number only, no unit symbol.

Memo: CCCCCC=O [hexanaldehyde] , reported melting point: -56

Memo: Cc1ncc([N+](=O)[O-])n1CCO [Metronidazole] , reported melting point: 160

Memo: CCOC(=O)CC(=O)OCC [Diethyl malonate] , reported melting point: -50

Memo: CCOC(=O)NCCOc1ccc(Oc2ccccc2)cc1 [fenoxycarb] , reported melting point: 53.5

Memo: Cc1cc(C)c(C)cc1C [1,2,4,5-tetramethylbenzene] , reported melting point: 80

Memo: CCNCC [diethylamine] , reported melting point: -50

Memo: CSC [dimethyl_sulfide] , reported melting point: -98

###

Quick reference: melting point of the listed items.
Answer in °C, number only, no unit symbol.

{"columns": ["compound", "melting point, °C"],
 "data": [
  ["C(O)[C@@H](O)[C@@H](O)[C@H](O)CO", 102],
  ["CCOC(=O)c1ccccc1C#N [ethyl_o-cyanobenzoate]", 68],
  ["ClC(Cl)Br", -55]
]}

Memo: O=C(CCCN1CCC(O)(c2ccc(Cl)cc2)CC1)c1ccc(F)cc1 , reported melting point: 152

Memo: CCCCCCCC(C)=O , reported melting point: -8

Memo: COc1ccc(I)cc1N , reported melting point: 86

Memo: C1=C\CCCCCC/1 [cis-cyclooctene] , reported melting point: -16

Memo: O=C(O)C(F)(F)C(F)(F)C(F)(F)C(F)(F)C(F)(F)C(F)(F)C(F)(F)C(F)(F)F , reported melting point: 66.5

Memo: NC1CCc2ccccc21 (configuration not stated) , reported melting point: 2

Memo: CCOCC [diethyl ether] , reported melting point: -116

Memo: Nc1cccc2c1C(=O)c1ccccc1C2=O , reported melting point: 254

###

Quick reference: melting point of the listed items.
Answer in °C, number only, no unit symbol.

Memo: CCC(C)CC , reported melting point: -118

Memo: O=C1CS/C(=N\c2ccccc2)N1c1ccccc1 , reported melting point: 176

Memo: OB(O)c1ccc(OCc2ccccc2)nc1 , reported melting point: 109

Memo: C1CCCCCCCCCCC1 [cyclododecane] , reported melting point: 61

Memo: CCCCCCCCC [Nonane] , reported melting point: -53

Memo: CC(C)Cc1ccc(C(C)C(=O)O)cc1 (stereo not drawn) [(+/+)-ibuprofen] , reported melting point: 74.6

Memo: Oc1ccccc1C=NCCN=Cc1ccccc1O [N,N'-bis(salicylidene)ethylenediamine] , reported melting point: 130

Memo: Oc1cc(O)c(Cl)cc1Cl , reported melting point: 115

Memo: O=Cc1ccc(O)cc1O [2,4-Dihydroxybenzaldehyde] , reported melting point: 136

Memo: Cc1cc(B(O)O)cnc1Cl , reported melting point: 182

Memo: O=Cc1cccnc1Cl , reported melting point: 52

Memo: CCOc1ccc(NC(C)=O)cc1 [Phenacetin] , reported melting point: 135

###

Sorting guide: entries reporting melting point beneath 100 °C go in the yes (1) pile, the rest go in the no (0) pile.

{"columns": ["compound", "assignedClass"],
 "data": [
  ["Nc1ccc2cc(O)ccc2c1 [6-Amino-2-naphthalenol]", "no (0)"],
  ["C#CCCCCCCC [1-nonyne]", "yes (1)"],
  ["O=c1c2ccccc2sc2ccccc12 [9H-Thioxanthen-9-one]", "no (0)"]
]}

[Q] Quick check: melting point of Clc1ccc(C(c2ccccc2Cl)C(Cl)(Cl)Cl)cc1 (stereo not drawn) [o,p'-DDT] under 100 °C?
[A] yes (1)

[Q] Quick check: melting point of Cc1ccc(N)cc1 [p-toluidine] under 100 °C?
[A] yes (1)

[Q] Quick check: melting point of CCCCCCCCOc1cc(N(NC(=O)OC(C)(C)C)C(=O)OC(C)(C)C)cc(OCCCCCCCC)c1OCCCCCCCC under 100 °C?
[A] yes (1)

[Q] Quick check: melting point of O=C(/C=C/c1ccc(-c2ccccc2)o1)c1ccccc1 [(2E)-1-phenyl-3-(5-phenyl-2-furyl)prop-2-en-1-one] under 100 °C?
[A] yes (1)

[Q] Quick check: melting point of COCCOCCOC [diethylene glycol dimethyl ether] under 100 °C?
[A] yes (1)

[Q] Quick check: melting point of O=c1ccc2ccccc2[nH]1 [2-hydroxyquinoline] under 100 °C?
[A] no (0)

[Q] Quick check: melting point of O=[N+]([O-])c1ccc(O)c2ncccc12 [8-hydroxy-5-nitroquinoline] under 100 °C?
[A] no (0)

[Q] Quick check: melting point of CCCCCCCCCCCCCCCCCCCCCC [N-docosane] under 100 °C?
[A] yes (1)

[Q] Quick check: melting point of CCC(=O)c1ccccc1 [propiophenone] under 100 °C?
[A] yes (1)

[Q] Quick check: melting point of CCCNC(=O)NS(=O)(=O)c1ccc(Cl)cc1 [Chlorpropamide] under 100 °C?
[A] no (0)

###

Sorting guide: entries reporting melting point beneath 100 °C go in the yes (1) pile, the rest go in the no (0) pile.

{"columns": ["molecule", "assignedClass"],
 "data": [
  ["Cc1cccc(C)c1NC(=O)CN1CCN(CCCC(c2ccc(F)cc2)c2ccc(F)cc2)CC1", "no (0)"],
  ["N#Cc1ccncc1I", "no (0)"],
  ["Nc1ccc(C(F)(F)F)cc1", "yes (1)"],
  ["O=C(O)CSc1ccc(C(F)(F)F)cc1 [[4-(trifluoromethyl)phenylthio]acetic acid]", "no (0)"],
  ["O=[N+]([O-])c1cccc(Cl)c1Cl", "yes (1)"]
]}

[Q] Quick check: melting point of O=[N+]([O-])/C=C/c1ccc([N+](=O)[O-])cc1 under 100 °C?
[A] no (0)

[Q] Quick check: melting point of ClC1=C(Cl)[C@]2(Cl)[C@H]3[C@H]([C@@H]4C=C[C@H]3C4)[C@@]1(Cl)C2(Cl)Cl under 100 °C?
[A] no (0)

###

Quick reference: melting point of the listed items.
Answer in °C, number only, no unit symbol.

{"columns": ["compound", "units", "melting point"],
 "data": [
  ["CCCCCCCc1ccc(C(=O)O)cc1", "°C", 69.8],
  ["CCCN(CCC)S(=O)(=O)c1ccc(C(=O)O)cc1 [Probenecid]", "°C", 195]
]}

Then this compound:
Memo: CCCN(CCC)S(=O)(=O)c1ccc(C(=O)O)cc1 [probenecid] , reported melting point: 198

###

Quick reference: melting point of the listed items.
Answer in °C, number only, no unit symbol.

Some molecules with known melting point results, for comparison:
{"columns": ["molecule", "melting point (°C)"],
 "data": [
  ["O=C1CSC(=S)N1c1ccccc1 [4-thiazolidinone, 3-phenyl-2-thioxo-]", 240],
  ["O=C(O)c1c2ccccc2cc2ccccc12 [Anthracene-9-carboxylic acid]", 213],
  ["CCCCC1CCCCC1 [Butylcyclohexane]", -75],
  ["O=C(CO)[C@H](O)[C@@H](O)[C@H](O)CO [D-sorbose]", 164],
  ["Nc1ncccc1O [2-amino-3-hydroxypyridine]", 170],
  ["Nc1nc(=O)c2ncn(COCCO)c2[nH]1 [Aciclovir]", 257],
  ["CC(=O)Nc1ccccc1/C=C/c1ccccc1 [N-{2-[(E)-2-phenylethenyl]phenyl}acetamide]", 113],
  ["NCCS(=O)(=O)O [2-Aminoethanesulfonic acid]", 300]
]}

Then this molecule:
Memo: COC(=O)/C(=C\c1ccccc1)Cc1ccccc1 [methyl (2Z)-2-benzyl-3-phenylprop-2-enoate] , reported melting point: 28

###

Quick reference: melting point of the listed items.
Answer in °C, number only, no unit symbol.

Memo: CCc1nnc(N)s1 , reported melting point: 201

Memo: O=[N+]([O-])c1cccc(Cl)c1Cl , reported melting point: 62

Memo: C1CCC(C2CCCCC2)CC1 [1,1'-Bi(cyclohexyl)] , reported melting point: 4

###

Would you mind sorting the entries by melting point according to these classes? low: < 40 °C; mid: ≥ 40 °C and < 100 °C; high: ≥ 100 °C

Worked set:
{"columns": ["compound", "assignedClass"],
 "data": [
  ["CNC(=NC#N)NCCSCc1nc[nH]c1C", "high"],
  ["N#Cc1ccc2c(c1)N(CCCN1CCC(O)CC1)c1ccccc1S2", "high"],
  ["CC12CCC(CC1=O)C2(C)C (stereo unspecified)", "high"],
  ["Brc1cc(Br)c(Br)cc1Br", "high"]
]}

[Q] Into which bin does this compound go? c1ccc2c(c1)OCCOCCOCCOCCO2
[A] mid

[Q] Into which bin does this compound go? C1COCCN1
[A] low

[Q] Into which bin does this compound go? CC(C)(O)C(C)(C)O [pinacol, anhydrous]
[A] mid

[Q] Into which bin does this compound go? CC(C)[C@@H]1CC[C@@H](C)C[C@H]1O
[A] mid

###

Quick reference: melting point of the listed items.
Answer in °C, number only, no unit symbol.

Memo: NC(N)=Nc1nc(CSCCC(N)=NS(N)(=O)=O)cs1 , reported melting point: 163

Memo: Fc1c(F)c(F)c(P(c2ccccc2)c2c(F)c(F)c(F)c(F)c2F)c(F)c1F , reported melting point: 62

Memo: C=CCCC [Pent-1-ene] , reported melting point: -165

Memo: COc1cc(C(C)=O)ccc1F , reported melting point: 52

Memo: O=C(O)c1ccccc1[N+](=O)[O-] [2-Nitrobenzoic acid] , reported melting point: 147

Memo: c1ccc(N=Nc2ccc(Nc3ccccc3)cc2)cc1 , reported melting point: 83

Memo: CCOC(=O)[C@@H]1CC[C@H](C(C)=O)[C@@H]1NC(=O)OC(C)(C)C , reported melting point: 110

Memo: OCCCCO , reported melting point: 20

Memo: CC(C)CCCC(C)C1CCC2C3CC=C4CC(O)CCC4(C)C3CCC12C (stereo not given) , reported melting point: 148

Memo: N#Cc1c2ccccc2cc2ccccc12 , reported melting point: 177

Data origin, for the record: the Bradley open melting point set (2014)
